This section presents compounds with their documented T/C values.
test system: L1210 leukemia ip in BDF1 mice, survival T/C; experiment: NCI In Vivo Anticancer Drug Screen. Data for tumor model L1210 Leukemia (intraperitoneal) in B6D2F1 (BDF1) mice; conditions: endpoint: mean survival time; dose: 200.0 mg/kg/injection; schedule: Q01DX001 (ip); vehicle: other; higher = longer survival
Inconclusive results and toxic doses are left out.

Consider the reported T/C for these compounds:
C/C(=N\N(Cc1ccc(CN(/N=C(\C)c2ccccc2)c2ccccc2)cc1)c1ccccc1)c1ccccc1
89 % of control
O=Cc1cc([N+](=O)[O-])ccc1O
97 % of control
Oc1ccccc1C=Nc1ccccc1O.[Cu+2]
116 % of control

Ask: Would you kindly share the measured T/C for CN(C)C(=O)NC1CCc2ccccc21 (configuration not stated) ?
Result: 93 % of control

Ask: Would you kindly share the measured T/C for COC(=O)C(Cc1c[nH]c2ccccc12)N(C)C (configuration not stated) ?
Result: 103 % of control

Ask: Would you kindly share the measured T/C for `COc1ccc(CC/C(=N/O)c2ccccc2)cc1` ?
Result: 90 % of control

Ask: Would you kindly share the measured T/C for `CC(=O)Nc1ccc(S(=O)(=O)NC(C)=O)cc1` ?
Result: 96 % of control

----------
test system: L1210 leukemia ip in BDF1 mice, survival T/C; assay: NCI In Vivo Anticancer Drug Screen. Data for tumor model L1210 Leukemia (intraperitoneal) in B6D2F1 (BDF1) mice; conditions: endpoint: mean survival time; dose: 50.0 mg/kg/injection; schedule: Q01DX009 (ip); vehicle: saline with Tween-80; higher = longer survival
Toxic doses and inconclusive results are not listed.
Measured Parameter: T/C

Consider the reported T/C for these compounds:
Cc1nc(N(C)C)c2cnn(-c3ccccc3)c2n1
106 % of control
Cc1cc(OCC(=O)O)c(Cl)cc1Cl
92 % of control
COc1cccc(/C=N/NC(=O)C[n+]2ccccc2)c1OC
106 % of control
NC(=O)c1cc(C(N)=O)cc([N+](=O)[O-])c1
101 % of control
CCCCCCN(/N=C\C(=O)O)C(N)=O
103 % of control

Ask: Would you kindly share the measured T/C for `Cc1ccccc1Nc1n[nH]c(=S)s1` ?
Result: 94 % of control

Ask: Would you kindly share the measured T/C for `Cn1ncc(C(=O)O)c1N` ?
Result: 111 % of control

Ask: Would you kindly share the measured T/C for `C=CCc1c(O)c(OC)cc2c1C(=O)CCCC2` ?
Result: 93 % of control

----------
test system: L1210 leukemia ip in BDF1 mice, survival T/C; test: NCI In Vivo Anticancer Drug Screen. Data for tumor model L1210 Leukemia (intraperitoneal) in B6D2F1 (BDF1) mice; settings: endpoint: mean survival time; dose: 400.0 mg/kg/injection; schedule: Q01DX001 (ip); vehicle: saline; higher = longer survival
Inconclusive results and toxic doses are left out.
Measured Parameter: T/C

Consider the reported T/C for these molecules:
CC(=O)OC1CC2CCC1(S(=O)(=O)O)C2(C)C (stereo unspecified)
107 % of control
CN(C)C=Nc1ccc([N+](=O)[O-])cc1
91 % of control
Cc1cc2c(c3[nH]c4ccccc4c13)C(=O)c1ccccc1C2=O
102 % of control

Ask: Would you kindly share the measured T/C for CC(=O)OCC1OC(n2ccc(=O)[nH]c2=O)C(OC(C)=O)C1OC(C)=O (stereo unspecified) ?
Result: 106 % of control

Ask: Would you kindly share the measured T/C for Cc1ccc(OS(=O)(=O)C2CC2c2ccccc2)cc1 (stereo unspecified) ?
Result: 98 % of control

Ask: Would you kindly share the measured T/C for `Cc1ncc(Br)c(C(=O)O)n1` ?
Result: 90 % of control
